# target-entity: reverse transcriptase derived from HIV (Human immunodeficiency virus type 1 group M subtype B)
measure-name: pIC50
// pIC50 here means minus log10 of the molar concentration (mol/L)

### Prompt // query pIC50 value for entry N[C@@H](Cc1ccc(OS(=O)(=O)[O-])cc1)C(=O)O.[Na+] [sulfate]
### Response 3.90

* * *

# measurement-notes: Influence on the proliferation of T cells (non-infected MT-4 cells)
# Type: cell-based
# measurement-context: human, 8 μg/ml, read-out: Survival rate
measure-name: viability at 120 h (%)
Number in %, nothing else.

### Prompt Param item = N[C@@H](Cc1ccc(OS(=O)(=O)[O-])cc1)C(=O)O.[Na+] [sulfate] ; retrieve measured viability at 120 h.
### Response 110

* * *

# measurement-notes: Influence on the proliferation of T cells (non-infected MT-4 cells)
# Format: cell-based
# measurement-context: human, 0.32 μg/ml, read-out: Survival rate
measure-name: viability at 120 h (%)
Express the result in % but write the number alone.

### Prompt Find the recorded viability at 120 h belonging to N[C@@H](Cc1ccc(OS(=O)(=O)[O-])cc1)C(=O)O.[Na+] [sulfate] and report it.
### Response 98

* * *

# measurement-notes: Influence on the proliferation of T cells (non-infected MT-4 cells)
# Type: cell-based
# measurement-context: human, 1000 μg/ml, read-out: Survival rate
measure-name: viability at 120 h (%)
# unit: % | format: bare number

### Prompt Form field: reported viability at 120 h of N[C@@H](Cc1ccc(OS(=O)(=O)[O-])cc1)C(=O)O.[Na+] [sulfate]
### Response 112

* * *

# measurement-notes: Influence on the proliferation of T cells (non-infected MT-4 cells)
# Type: cell-based
# measurement-context: human, 40 μg/ml, read-out: Survival rate
measure-name: viability at 120 h (%)
Just the number in %, nothing appended.

### Prompt Fill blank: measured viability at 120 h of the molecule N[C@@H](Cc1ccc(OS(=O)(=O)[O-])cc1)C(=O)O.[Na+] [sulfate] is ____.
### Response 94

Origin of the recorded values: patent US5614554A
